Task for the reader: assign each of the following compounds its reported log10 of half-life.
assay: Plasma pharmacokinetics in rats after intravenous administration; details: male, Sprague Dawley, rat, plasma, iv, 1 mg/kg
// do not treat as linear: log10 of half-life, unit min

// for each compound below, give its log10 of half-life
1. CC(C)NCCc1c[nH]c2ccc(F)c(O)c12
2. CNCCc1c[nH]c2cccc(O)c12

Output:
1: 1.42; 2: 1.03

###

system: monoamine oxidase A and B (MAO-A and MAO-B); experiment: Stability in the presence of monoamine oxidases (human liver mitochondria preparation); conditions: human liver mitochondria, t = 60 min
Measure: Remaining (t = 60 min) (%)
One number for each entry, in %.

Example compounds with recorded Remaining (t = 60 min):
CNCCc1c[nH]c2cccc(O)c12 [Compound 2, 3-(2-(methylamino)ethyl)-1H-indol-4-ol]; 12.8
CCN(C)CCc1c[nH]c2cccc(O)c12 [Compound 4-HO-MET, reference compound]; 112.3
CNCCc1c[nH]c2cc(F)cc(O)c12 [Compound 33]; 14.3

// for each compound below, give its Remaining (t = 60 min)
1. Oc1cccc2[nH]cc(CCNC3CC3)c12 [Compound 4]
2. NCCc1c[nH]c2cccc(O)c12 [Compound 1, 3-(2-aminoethyl)-1H-indol-4-ol]
3. COc1ccc2[nH]cc(CCN(C)C)c2c1 [Compound 5-MeO-DMT, reference compound]
4. NCCc1c[nH]c2c(F)ccc(O)c12 [Compound 32, 3-(2-aminoethyl)-7-fluoro-1H-indol-4-ol]
5. Oc1cccc2[nH]cc(CCNCCF)c12 [Compound 7]

Output:
[72.7, 51.1, 47.1, 24.0, 85.2]

Task: For monoamine oxidase A and B (MAO-A and MAO-B), provide Remaining (t = 60 min) of CNCCc1c[nH]c2ccc(F)c(O)c12 [Compound 26] please.
Output: 0.1

###

test: Stability in mouse brain homogenate; assay type: in vitro ADME, male CD-1 mice; details: mouse brain homogenate, 1 μM, 37° C., 120 min
Task for the reader: assign each of the following molecules its reported % Compound Remaining (after 120 min).
Give bare numbers, in %.

CCCNCCc1c[nH]c2cccc(O)c12; 29.2
C=CCNCCc1c[nH]c2cccc(O)c12; 49.6
CNCCc1c[nH]c2c(F)ccc(O)c12; 1.6
Oc1cccc2[nH]cc(CCNCCF)c12; 61.8
NCCc1c[nH]c2c(F)ccc(O)c12; 4.8
CCNCCc1c[nH]c2ccc(C)c(O)c12; 31.3
Oc1cccc2[nH]cc(CCNC3CC3)c12; 19.4
CNCCc1c[nH]c2cccc(O)c12; 0.2

// for each molecule below, give its % Compound Remaining (after 120 min)
1. CCNCCc1c[nH]c2ccc(Cl)c(O)c12
2. C#CCNCCc1c[nH]c2cccc(O)c12

Output:
[0.9, 40.5]

// for each molecule below, give its % Compound Remaining (after 120 min)
1. NCCc1c[nH]c2cc(F)cc(O)c12
2. NCCc1c[nH]c2ccc(F)c(O)c12
3. CCNCCc1c[nH]c2cc(F)cc(O)c12
4. COc1ccc2[nH]cc(CCN(C)C)c2c1 [Compound 5-MeO-DMT, reference compound]
5. CC(C)NCCc1c[nH]c2cccc(O)c12

Output:
1. 1.6
2. 0
3. 29.9
4. 91.2
5. 62.6

// for each molecule below, give its % Compound Remaining (after 120 min)
1. CCNCCc1c[nH]c2cccc(O)c12 [Compound 5, 3-(2-(ethylamino)ethyl)-1H-indol-4-ol]
2. CNCCc1cn(C(C)C)c2cc(F)cc(O)c12
3. CNCCc1c[nH]c2cc(F)cc(O)c12
4. CC(C)n1cc(CCN(C)C)c2c(O)cc(F)cc21
5. CNCCc1c[nH]c2ccc(F)c(O)c12
6. CN(C)CCc1c[nH]c2ccc(F)cc12 [Compound 5-F-DMT, reference compound]
7. CCCNCCc1c[nH]c2ccc(F)c(O)c12

Output:
[67.2, 72.3, 0.6, 80.9, 0, 0.0, 46.2]

// for each molecule below, give its % Compound Remaining (after 120 min)
1. CCN(C)CCc1c[nH]c2cccc(O)c12 [Compound 4-HO-MET, reference compound]
2. CN(C)CCc1c[nH]c2cccc(O)c12 [Psilocin, psilocin, reference compound]
3. CNCCc1c[nH]c2cc(C)cc(O)c12
4. CN(C)CCc1c[nH]c2ccccc12 [DMT, N,N-dimethyltryptamine, reference compound]
5. CC(C)NCCc1c[nH]c2ccc(F)c(O)c12
6. Oc1c(F)ccc2[nH]cc(CCNC3CC3)c12

Output:
1: 16.7; 2: 97.6; 3: 0.4; 4: 0.0; 5: 40; 6: 29.4

// for each molecule below, give its % Compound Remaining (after 120 min)
1. NCCc1c[nH]c2cccc(O)c12
2. CCNCCc1c[nH]c2ccc(F)c(O)c12

Output:
[0.0, 1.9]
